Biological target: T1, human LAG-3 on cells (HEK293-hLAG-3 stable cell line) (human, UniProt P18627 23-525)
T1 sequence: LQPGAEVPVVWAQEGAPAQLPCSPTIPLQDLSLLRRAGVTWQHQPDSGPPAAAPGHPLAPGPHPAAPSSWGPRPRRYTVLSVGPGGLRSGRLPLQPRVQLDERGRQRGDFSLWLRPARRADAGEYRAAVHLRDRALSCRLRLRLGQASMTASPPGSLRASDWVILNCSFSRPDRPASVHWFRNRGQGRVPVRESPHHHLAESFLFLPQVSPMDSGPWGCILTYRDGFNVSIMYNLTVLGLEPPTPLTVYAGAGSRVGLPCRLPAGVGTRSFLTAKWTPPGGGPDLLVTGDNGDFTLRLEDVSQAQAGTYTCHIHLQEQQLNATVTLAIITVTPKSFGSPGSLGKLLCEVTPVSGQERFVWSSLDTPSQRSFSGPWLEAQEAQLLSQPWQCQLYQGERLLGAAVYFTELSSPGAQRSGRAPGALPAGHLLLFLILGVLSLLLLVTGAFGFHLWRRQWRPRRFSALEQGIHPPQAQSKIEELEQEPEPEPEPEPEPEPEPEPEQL
Experiment: FACS, HEK293-hLAG-3, antibody 0 nM
OBSERVATION TYPE: Mean fluorescence intensity

- BINDER: "556F6B8-3 humanized antibody (antibody, V domains shown) VH: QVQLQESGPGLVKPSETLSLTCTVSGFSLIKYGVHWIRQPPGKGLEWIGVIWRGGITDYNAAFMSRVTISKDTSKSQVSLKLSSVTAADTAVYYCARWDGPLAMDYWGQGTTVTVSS VL: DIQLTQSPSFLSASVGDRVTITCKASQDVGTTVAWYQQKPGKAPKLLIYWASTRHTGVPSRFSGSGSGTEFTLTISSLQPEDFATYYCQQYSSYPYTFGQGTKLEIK"
  Mean fluorescence intensity: 4

Query Mean fluorescence intensity for 556F6B8 mouse-human chimeric antibody (antibody, V domains shown, also called mAb123-556F6B8; 556F8B8) VH: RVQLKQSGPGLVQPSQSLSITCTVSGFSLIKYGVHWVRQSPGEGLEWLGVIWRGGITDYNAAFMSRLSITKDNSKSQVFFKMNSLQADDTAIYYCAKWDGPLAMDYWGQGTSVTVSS VL: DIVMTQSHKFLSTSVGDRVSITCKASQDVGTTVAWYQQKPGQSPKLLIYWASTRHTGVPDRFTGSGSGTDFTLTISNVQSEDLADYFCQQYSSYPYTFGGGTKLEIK 4

Query Mean fluorescence intensity for 556F6B8-6 humanized antibody (antibody, V domains shown) VH: QVQLQESGPGLVKPSETLSLTCTVSGFSIIKYGVHWIRQPPGKGLEWIGVIWRGGITDYNAAFMSRVTISVDTSKNQFSLKLSSVTAADTAVYYCARWDGPLAMDYWGQGTTVTVSS VL: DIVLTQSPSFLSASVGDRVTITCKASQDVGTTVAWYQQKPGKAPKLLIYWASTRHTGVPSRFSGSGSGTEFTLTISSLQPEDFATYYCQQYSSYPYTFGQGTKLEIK 4
